Provenance of the data: patent US20080114047A1

# System: Mycobacterium tuberculosis
# assayRemarks: Compounds tested against Mycobacterium tuberculosis (MIC90)
# Format: cell-based
# particulars: read-out: M. tb. MIC90
propertyName: MIC90 (µg/mL)
Write the number in µg/mL without appending the unit.

Cl.Cl.c1cc(OCCCCCCOc2ccc(C3=NCCN3)cc2)cc(-c2cc3ccc(C4=NCCN4)cc3o2)c1 [Compound 67]: 18

For Cl.Cl.N=C(N)c1ccc(OCCCCOc2ccc(-c3cc4cc(C(=N)N)ccc4o3)cc2)cc1 [Compound 47] , what is its reported MIC90?
31.8

Queued: Cl.Cl.N=C(N)c1ccc(OCCCOc2ccc(-c3cc4cc(C(=N)N)ccc4o3)cc2)cc1 [Compound 44]
0.45

Queued: Cl.Cl.N=C(N)c1ccc(OCCCOc2cccc(-c3cc4cc(C(=N)N)ccc4o3)c2)cc1 [Compound 32]
0.53

Queued: CC(C)NC(=N)c1ccc(OCCCCCOc2cccc(-c3cc4cc(C(=N)NC(C)C)ccc4o3)c2)cc1.Cl.Cl [Compound 39]
1.12

Queued: CC(C)NC(=N)c1ccc(OCCCCCCOc2ccc(-c3cc4ccc(C(=N)NC(C)C)cc4o3)cc2)cc1.Cl.Cl [Compound 78]
2.11
